Experiment: NCI Yeast Anticancer Drug Screen. Data for the rad50EPP+ strain (AID 151);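 also: 0% = growth of vehicle-treated control cultures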
Conditions: S. cerevisiae rad50 mutant strain, at 11.0 µM, hits give high values
About 79,000 compounds went through this panel and 15% of them were active in at least one assay; those are over-represented in the sample as a whole.
Let's look at some compounds and their measured growth inhibition.
Field format: number, assumed %, no unit text.

COMPOUND	UNIT_TAG	OBS_VALUE
CN(C)Cc1cc(N=Nc2ccc(Cl)cc2)cc(CN(C)C)c1O	%	15

The reported growth inhibition of the compound Cc1ccc(-c2ccc(Nc3c4ccccc4nc4ccccc34)cc2)cn1 was 85

Entry CC(=O)Nc1ccc(SC(C)=O)cc1 ; growth inhibition = -6

Looking up OC(COc1cccc2ccccc12)CN1CCOCC1 (stereo unspecified) , I found its growth inhibition recorded as -9

Measured growth inhibition, COC(=O)C1=C(C(=O)OC)C2(C)C=CC1O2 (stereo unspecified) : -12

What the record says about COc1ccccc1N=NC(C(=O)c1ccccc1)C(=O)c1ccccc1 : growth inhibition is 1

====

Test: NCI Yeast Anticancer Drug Screen. Data for the bub3 strain (AID 167)
Conditions: S. cerevisiae bub3 mutant strain, at 3.7 µM, hits give high values
About 79,000 compounds went through this panel and 15% of them were active in at least one assay; those are over-represented in the sample as a whole.
Quick reference for growth inhibition among some molecules
# number only, unit % dropped from output

MOLECULE	OBS_VALUE
Cn1c(=O)c2ccccc2c2ccccc21	-2
CNC(=O)OCc1c(COC(=O)NC)c(-c2ccc(-c3ccccc3)cc2)n(C)c1C	-15

growth inhibition recorded for this molecule, Cn1c2ccccc2c(=O)c2cc(NC(=O)CCCCC(=O)Nc3ccc4c(c3)c(=O)c3ccccc3n4C)ccc21 , is -5

Looking up Cc1ccc(C2C(Cl)C(=O)N2n2cnc3ccccc3c2=O)cc1 (stereo not drawn) , I found its growth inhibition recorded as -7

Recorded result, c1ccc2c(c1)C(=NCCCN1CCCCCC1)c1cccn1-2 , growth inhibition: -4

====

Assay: NCI Yeast Anticancer Drug Screen. Data for the rad50 strain (AID 155);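 also: 0% = growth of vehicle-only cultures of the same strain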
Settings: S. cerevisiae rad50 strain growth inhibition; at 50.0 µM (retest, dose inferred, filed as 5.0); hits give high values
About 79,000 compounds went through this panel and 15% of them were active in at least one assay; those are over-represented in the sample as a whole.
PROPERTY_NAME: growth inhibition (%)
Output spec: scalar in %, unitless text.

Record excerpt, results attached:
SMILES_REPRESENTATION	OBS_VALUE
NNC(=O)CCc1ccc2ccc3ccccc3c2c1	7
COc1ccccc1/C=C1\Sc2scc(-c3cccc([N+](=O)[O-])c3)[n+]2C1=O	96
CNC(=O)OCc1c(COC(=O)NC)c(-c2ccc(-c3ccccc3)cc2)n(C)c1C	85
Nc1ncncc1C(C1=C(O)COC1=O)C1=C(O)COC1=O	15
CCCCCCCCCCCC1=C(O)C(=O)C=C(O)C1=O	79
CCOC(=O)c1cnc2cc(C(F)(F)F)ccc2c1N=[N+]=[N-]	20

According to the records, this molecule CC(C)c1ccccc1NC(=O)/C(Cl)=C(\Cl)C(=O)O displays growth inhibition of 82

Value of growth inhibition reported for the molecule O=CC=C(c1ccccc1)c1ccccc1 is 86

====

Test: NCI Yeast Anticancer Drug Screen. Data for the rad50 strain (AID 155);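 also: 0% = growth of vehicle-only cultures of the same strain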
Details: S. cerevisiae rad50 strain growth inhibition; at 50.0 µM (retest, dose inferred, filed as 5.0); hits give high values
This is part of a sample that, as a whole, favours compounds with a hit. Of some 79,000 tested, about 15% had one in any assay.
growth inhibition reference
Numbers only; they are read as %.

The following compounds have reported results that may help.
COMPOUND	UNIT_TAG	OBS_VALUE
CC1=C(SCCO)C(=O)c2ccccc2C1=O	%	99
CC(C)/C(Cl)=N\OC(=O)Nc1ccccc1F	%	85
CCOC(=O)c1cnc2c(C(F)(F)F)cccc2c1N=[N+]=[N-]	%	8
Fc1ccc(NC(=S)SCc2ccc3c(c2)OCO3)cc1F	%	97
CN1CCc2ccccc2C1Cc1ccccc1NC(=O)c1sc2ccccc2c1Cl (configuration not stated)	%	97

Next compound, please.
The compound N#Cc1ccc(C2NN=CC23C(=O)c2ccccc2OC3c2ccccc2)cc1 (configuration not stated) showed growth inhibition equal to 66
